Test system: CD2F1 mice, L1210 leukemia ip, survival T/C
Experiment: NCI In Vivo Anticancer Drug Screen. Data for tumor model L1210 Leukemia (intraperitoneal) in CD2F1 (CDF1) mice
Conditions: endpoint: mean survival time; dose: 400.0 mg/kg/injection; schedule: Q01DX001 (ip); vehicle: saline with Tween-80; higher = longer survival
Toxic doses and inconclusive results are not listed.
READOUT TYPE: T/C

{"MOLECULE": "OCC(O)C(O)C(O)C(O)/C=N\\Nc1ccccc1 (centres undefined)", "TEST VALUE": "95 % of control"}
{"MOLECULE": "CC(=O)N(C)[Si](C)(C)C", "TEST VALUE": "106 % of control"}
{"MOLECULE": "CCOC(=O)c1sc(C(=O)OCC)c(-c2ccccc2)c1-c1ccccc1", "TEST VALUE": "96 % of control"}
{"MOLECULE": "CCN(CC)CCNc1cc2c3ccccc3ccc2c2ccccc12", "TEST VALUE": "100 % of control"}
{"MOLECULE": "O=C(OCC1OC(OC2(COC(=O)c3ccccc3)OC(COC(=O)c3ccccc3)C(OC(=O)c3ccccc3)C2OC(=O)c2ccccc2)C(OC(=O)c2ccccc2)C(OC(=O)c2ccccc2)C1OC(=O)c1ccccc1)c1ccccc1 (centres undefined)", "TEST VALUE": "102 % of control"}
{"MOLECULE": "C1=C(c2ccccc2)NCC1c1ccccc1 (centres undefined)", "TEST VALUE": "89 % of control"}
{"MOLECULE": "C=CC1(O)CCCCC1", "TEST VALUE": "97 % of control"}
{"MOLECULE": "CC(=O)OCC(C)CCC1OC2CC3C4CCC5CC(OC(C)=O)CCC5(C)C4CCC3(C)C2C1C (centres undefined)", "TEST VALUE": "94 % of control"}
{"MOLECULE": "COc1c(Cl)c(=O)oc2cc(C)c(Cl)c(C)c12", "TEST VALUE": "96 % of control"}
{"MOLECULE": "COc1cc([N+](=O)[O-])ccc1NC(=O)N1CCCC(C)C1 (centres undefined)", "TEST VALUE": "86 % of control"}
{"MOLECULE": "O=C(COc1cccc(Cl)c1)NCc1cccc(NC(=O)Nc2cccc(S(=O)(=O)F)c2)c1", "TEST VALUE": "101 % of control"}
{"MOLECULE": "C#CC(CC)OC(=O)c1cc([N+](=O)[O-])cc([N+](=O)[O-])c1 (centres undefined)", "TEST VALUE": "90 % of control"}
{"MOLECULE": "O=C1c2ccccc2C(=O)N1CCCCN1C(=O)c2ccccc2C1=O", "TEST VALUE": "90 % of control"}
{"MOLECULE": "CCN(CC)C(=O)C(C)C1CCC2C3CC=C4CC(OC(=O)c5cc([N+](=O)[O-])cc([N+](=O)[O-])c5)CCC4(C)C3CCC12C (centres undefined)", "TEST VALUE": "98 % of control"}

###

System: CD2F1 mice, L1210 leukemia ip, survival T/C
Test: NCI In Vivo Anticancer Drug Screen. Data for tumor model L1210 Leukemia (intraperitoneal) in CD2F1 (CDF1) mice
Conditions: endpoint: mean survival time; dose: 400.0 mg/kg/injection; schedule: Q04DX002 (ip); vehicle: saline with Tween-80; higher = longer survival
Inconclusive results and toxic doses are left out.
Known T/C of a selection of molecules
READOUT TYPE: T/C

{"MOLECULE": "O=C(O)c1c(Cl)c(Cl)c(Cl)c(Cl)c1C(=O)O", "TEST VALUE": "105 % of control"}
{"MOLECULE": "CCOC(=O)CCN(CCC(=O)OCC)Cc1ccccc1", "TEST VALUE": "103 % of control"}
{"MOLECULE": "OC1CCCN(c2c3ccccc3nc3ccccc23)C1 (stereo not drawn)", "TEST VALUE": "100 % of control"}
{"MOLECULE": "O=Cc1ccc(OC(=O)Nc2cccc3ccccc23)cc1", "TEST VALUE": "87 % of control"}
{"MOLECULE": "CCCCS/C=C\\C(=O)OCC", "TEST VALUE": "102 % of control"}
{"MOLECULE": "CCOC(=O)c1ccc(NC(=O)N2CCC(CCCc3ccccc3)CC2)cc1", "TEST VALUE": "90 % of control"}
{"MOLECULE": "CC(N(N=O)c1cccc(Cl)c1)S(=O)(=O)O (stereo not drawn)", "TEST VALUE": "86 % of control"}
{"MOLECULE": "Cc1c(C=NC(=O)c2ccccc2)c2ccccc2n1C", "TEST VALUE": "96 % of control"}
{"MOLECULE": "Nc1ccc(N=Nc2ccc3nccc(N)c3c2)c(N)n1", "TEST VALUE": "119 % of control"}
{"MOLECULE": "Nc1c(Br)cc(Br)c2c1CCC2", "TEST VALUE": "94 % of control"}
{"MOLECULE": "Cc1ccc(C2c3c(nc[nH]c3=O)OC2(C)C)cc1 (stereo not drawn)", "TEST VALUE": "111 % of control"}
{"MOLECULE": "CC1(C)OCC2OC3(C(=O)O)OC(C)(C)OC3C2O1 (stereo not drawn)", "TEST VALUE": "86 % of control"}
{"MOLECULE": "CC1(C)OC2C(COC(=O)Oc3ccccc3)OC(n3cnc4c(=O)[nH]cnc43)C2O1 (stereo not drawn)", "TEST VALUE": "97 % of control"}
{"MOLECULE": "Nc1ccc(S(=O)(=O)c2ccc(N3CCOCC3)c(N)c2)cc1", "TEST VALUE": "97 % of control"}
{"MOLECULE": "COC(=O)c1cccn1C(=O)c1cc(OC)c(OC)cc1[N+](=O)[O-]", "TEST VALUE": "89 % of control"}
{"MOLECULE": "CCCCCCCCOCCOCCOCCOCCOCCCCCCCC", "TEST VALUE": "102 % of control"}
{"MOLECULE": "COc1cc([N+](=O)[O-])ccc1NC(=O)NCc1ccccc1", "TEST VALUE": "93 % of control"}
{"MOLECULE": "CCOC(=O)Cc1nc2ccccc2[nH]1", "TEST VALUE": "95 % of control"}
